system: 769-P; assay: GI50 of drug in presence of dasatinib; higher = less potent; conditions: treatment: drug + dasatinib (fixed dose, not stated); 5 days
Value Type: GI50 of drug (µM)
Give bare numbers, in µM.

Reference set, count: 4
| Compound | GI50 of drug, µM |
| --- | --- |
| Nc1nc(N)c2nc(-c3cccc(O)c3)c(-c3cccc(O)c3)nc2n1 [TG100-115] + Cc1nc(Nc2ncc(C(=O)Nc3c(C)cccc3Cl)s2)cc(N2CCN(CCO)CC2)n1 | 6.88 |
| C=CC(=O)Nc1cccc(Oc2nc(Nc3ccc(N4CCN(C)CC4)cc3)ncc2Cl)c1 [WZ3146] + Cc1nc(Nc2ncc(C(=O)Nc3c(C)cccc3Cl)s2)cc(N2CCN(CCO)CC2)n1 | 0.523 |
| CN1CCN(CCOc2cc(OC3CCOCC3)c3c(Nc4c(Cl)ccc5c4OCO5)ncnc3c2)CC1 [Saracatinib (AZD0530)] + Cc1nc(Nc2ncc(C(=O)Nc3c(C)cccc3Cl)s2)cc(N2CCN(CCO)CC2)n1 | 0.311 |
| Cc1c(CN2CCN(C(=O)[C@H](C)O)CC2)sc2c(N3CCOCC3)nc(-c3cnc(N)nc3)nc12 [GDC-0980 (RG7422)] + Cc1nc(Nc2ncc(C(=O)Nc3c(C)cccc3Cl)s2)cc(N2CCN(CCO)CC2)n1 | 0.0804 |

// moving on: another record for GI50 of drug
Prompt line: Indicate its recorded GI50 of drug; the compound in question is CC[C@H](Nc1ncnc2[nH]cnc12)c1nc2cccc(F)c2c(=O)n1-c1ccccc1 [CAL-101 (GS-1101)] + Cc1nc(Nc2ncc(C(=O)Nc3c(C)cccc3Cl)s2)cc(N2CCN(CCO)CC2)n1
Response line: 7.53

###

test system: TK-10; experiment: AUC of dose-response viability curve, drug alone (arbitrary (AUC of normalised viability)); higher = less growth inhibition; settings: treatment: drug alone; 5 days
Record form. Attribute: AUC of dose-response viability curve. Fill in for each entry.
One number for each entry.

| Compound Structure String | AUC of dose-response viability curve |
| --- | --- |
| O=C1NC(=O)/C(=C/c2ccc3c(c2)OC(F)(F)O3)S1 | 3.24 |
| CN1CCN(CCOc2cc(OC3CCOCC3)c3c(Nc4c(Cl)ccc5c4OCO5)ncnc3c2)CC1 | 2.45 |
| CNC(=O)Nc1ccc(-c2nc(N3CC4CCC(C3)O4)c3cnn(C4CCC5(CC4)OCCO5)c3n2)cc1 | 1.52 |

Below is a list of compounds. For each, state its recorded AUC of dose-response viability curve.
1. COc1ccc(-c2ccc3c(N4CCOC[C@@H]4C)nc(N4CCOC[C@@H]4C)nc3n2)cc1CO
2. NC(=O)Nc1sc(-c2ccc(F)cc2)cc1C(N)=O
3. Cc1ncc(-c2ccnc(Nc3ccc(S(C)(=O)=O)cc3)n2)n1C(C)C

Response line:
[1.48, 2.53, 2.49]

List the reported AUC of dose-response viability curve of each compound below.
1. FC(F)(F)c1ccc(Nc2nc3cc(Oc4ccnc(-c5ncc(C(F)(F)F)[nH]5)c4)ccc3[nH]2)cc1
2. CCO.N#CC(=C(/N)Sc1ccccc1N)/C(C#N)=C(\N)Sc1ccccc1N

Response line:
1: 3.18; 2: 2.95

###

tested on: ACHN; experiment: AUC of dose-response viability curve, drug + dasatinib, normalised to DMSO (arbitrary (AUC of normalised viability)); higher = less growth inhibition; conditions: treatment: drug + dasatinib (fixed dose, not stated); 5 days
Value Type: AUC of dose-response viability curve

| Molecule | Assay Value |
| --- | --- |
| Cc1ccc(C(=O)Nc2cccc(C(F)(F)F)c2)cc1Nc1nc(-c2cccnc2)nc2c1cnn2C [NVP-BHG712] + Cc1nc(Nc2ncc(C(=O)Nc3c(C)cccc3Cl)s2)cc(N2CCN(CCO)CC2)n1 [dasatinib] | 1.8 |
| Cc1nc(N)sc1-c1ccnc(Nc2ccc(N3CCOCC3)cc2)n1 [CYC116] + Cc1nc(Nc2ncc(C(=O)Nc3c(C)cccc3Cl)s2)cc(N2CCN(CCO)CC2)n1 [dasatinib] | 1.35 |
| Nc1cccc2c1CN(C1CCC(=O)NC1=O)C2=O (stereo not given) [Lenalidomide (Revlimid)] + Cc1nc(Nc2ncc(C(=O)Nc3c(C)cccc3Cl)s2)cc(N2CCN(CCO)CC2)n1 [dasatinib] | 2.05 |
| CC(=O)NCC(=O)N1[C@H]2CC[C@H]1c1cc(Nc3ncc(C(F)(F)F)c(NC4CCC4)n3)ccc12 + Cc1nc(Nc2ncc(C(=O)Nc3c(C)cccc3Cl)s2)cc(N2CCN(CCO)CC2)n1 [dasatinib] | 1.17 |

Here is the next item to consider.
Prompt line: Please supply the value of reported AUC of dose-response viability curve for the item COc1cc(Nc2ncc3c(n2)-c2ccc(Cl)cc2C(c2c(F)cccc2OC)=NC3)ccc1C(=O)O [MLN8237 (Alisertib)] + Cc1nc(Nc2ncc(C(=O)Nc3c(C)cccc3Cl)s2)cc(N2CCN(CCO)CC2)n1 [dasatinib]
Response line: 1.37

###

test system: TK-10; assay: AUC of dose-response viability curve, drug + dasatinib, normalised to DMSO (arbitrary (AUC of normalised viability)); higher = less growth inhibition; conditions: treatment: drug + dasatinib (fixed dose, not stated); 5 days
Value Type: AUC of dose-response viability curve

Answered cases to consult:
| Compound | AUC of dose-response viability curve |
| --- | --- |
| Cn1cc(-c2ccc3nnc(C(F)(F)c4ccc5ncccc5c4)n3n2)cn1 + Cc1nc(Nc2ncc(C(=O)Nc3c(C)cccc3Cl)s2)cc(N2CCN(CCO)CC2)n1 | 2.6 |
| COC(=O)Nc1ccc(-c2nc(N3CCOCC3)c3cnn(C4CCN(Cc5cccnc5)CC4)c3n2)cc1 [WYE-687] + Cc1nc(Nc2ncc(C(=O)Nc3c(C)cccc3Cl)s2)cc(N2CCN(CCO)CC2)n1 | 1.79 |
| CCS(=O)(=O)N1CC(CC#N)(n2cc(-c3ncnc4[nH]ccc34)cn2)C1 + Cc1nc(Nc2ncc(C(=O)Nc3c(C)cccc3Cl)s2)cc(N2CCN(CCO)CC2)n1 | 2.61 |
| CNC(=O)c1ccccc1Sc1ccc2c(/C=C/c3ccccn3)n[nH]c2c1 [Axitinib] + Cc1nc(Nc2ncc(C(=O)Nc3c(C)cccc3Cl)s2)cc(N2CCN(CCO)CC2)n1 | 2.91 |

# input for lookup
Prompt line: State, in one line, measured AUC of dose-response viability curve of Cc1[nH]c(/C=C2\C(=O)Nc3ccccc32)c(C)c1CCC(=O)O [TSU-68] + Cc1nc(Nc2ncc(C(=O)Nc3c(C)cccc3Cl)s2)cc(N2CCN(CCO)CC2)n1
Response line: 2.77

###

test system: 786-O; test: minimum viability across doses, drug + dasatinib, relative to DMSO (fraction); higher = less growth inhibition; details: treatment: drug + dasatinib (fixed dose, not stated); 5 days
Label 1 when minimum viability across doses is strictly below 0.6; otherwise label -1.

| Compound | Qualitative Label |
| --- | --- |
| CCC(=O)N1CCN(c2ccc(-n3c(=O)ccc4cnc5ccc(-c6cnc7ccccc7c6)cc5c43)cc2C(F)(F)F)CC1 [Torin 1] + Cc1nc(Nc2ncc(C(=O)Nc3c(C)cccc3Cl)s2)cc(N2CCN(CCO)CC2)n1 [dasatinib] | 1 |

Prompt line: minimum viability across doses under 0.6? Item: Cc1cc2c(F)c(Oc3ncnn4cc(OC[C@@H](C)O)c(C)c34)ccc2[nH]1 + Cc1nc(Nc2ncc(C(=O)Nc3c(C)cccc3Cl)s2)cc(N2CCN(CCO)CC2)n1 [dasatinib]
Response line: -1

Prompt line: Please check: minimum viability across doses for CNC(=O)c1ccc(-c2cnc3ncc(Cc4ccc5ncccc5c4)n3n2)cc1F + Cc1nc(Nc2ncc(C(=O)Nc3c(C)cccc3Cl)s2)cc(N2CCN(CCO)CC2)n1 [dasatinib] , strictly under 0.6 or not?
Response line: 1

Prompt line: Just wondering, is minimum viability across doses of COC[C@H]1OC(=O)c2coc3c2[C@@]1(C)C1=C(C3=O)[C@@H]2CCC(=O)[C@@]2(C)C[C@@H]1OC(C)=O [Wortmannin] + Cc1nc(Nc2ncc(C(=O)Nc3c(C)cccc3Cl)s2)cc(N2CCN(CCO)CC2)n1 [dasatinib] below 0.6?
Response line: 1

Prompt line: is_below(minimum viability across doses, 0.6) for C[C@@H](N)[C@H]1CC[C@H](C(=O)Nc2ccncc2)CC1.Cl.Cl + Cc1nc(Nc2ncc(C(=O)Nc3c(C)cccc3Cl)s2)cc(N2CCN(CCO)CC2)n1 [dasatinib] ?
Response line: -1

Prompt line: Lab note: minimum viability across doses threshold 0.6. Does this compound come in strictly under it? OCc1ccc(-c2ccc(-c3ccc(CO)s3)o2)s1 + Cc1nc(Nc2ncc(C(=O)Nc3c(C)cccc3Cl)s2)cc(N2CCN(CCO)CC2)n1 [dasatinib]
Response line: 1

Prompt line: Given Cl.Cl.NC1(c2ccc(-c3nc4ccn5c(=O)[nH]nc5c4cc3-c3ccccc3)cc2)CCC1 [MK-2206 dihydrochloride] + Cc1nc(Nc2ncc(C(=O)Nc3c(C)cccc3Cl)s2)cc(N2CCN(CCO)CC2)n1 [dasatinib] , is recorded minimum viability across doses strictly lower than 0.6?
Response line: 1

Prompt line: Below 0.6 on minimum viability across doses? Entry Cc1ccc(NC(=O)c2ccc(CN3CCN(C)CC3)cc2)cc1Nc1nccc(-c2cccnc2)n1 [Imatinib (Gleevec)] + Cc1nc(Nc2ncc(C(=O)Nc3c(C)cccc3Cl)s2)cc(N2CCN(CCO)CC2)n1 [dasatinib]
Response line: 1

Prompt line: Does this compound meet the criterion minimum viability across doses < 0.6? COc1ccc(-c2ccc3c(N4CCOCC4)nc(N4C[C@@H](C)O[C@@H](C)C4)nc3n2)cc1CO + Cc1nc(Nc2ncc(C(=O)Nc3c(C)cccc3Cl)s2)cc(N2CCN(CCO)CC2)n1 [dasatinib]
Response line: 1
